All figures here come from paper PMC10397247.

Biological target: T1, 4H2553-AA
T1 chain: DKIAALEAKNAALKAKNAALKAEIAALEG
Assay: two-hybrid library CCmax;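 note: natural log of median RNA to DNA barcode read ratio; higher means stronger binding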
Details: mean of both orientations
OUTCOME_MEASURE: interaction score

BINDER: DENAALEAKNAALKAKIAALKAEIAALEG [4H1513-AA]
ENDPOINT_RESULT: -1.64

BINDER: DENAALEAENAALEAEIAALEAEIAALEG [4H1153-AA]
ENDPOINT_RESULT: -0.371

BINDER: DENAALKAEIAALKAENAALKAKIAALEG [4H1629-AA]
ENDPOINT_RESULT: -1.61

BINDER: DENAALEAKIAALKAEIAALEAKNAALEG [4H1351-AA]
ENDPOINT_RESULT: -1.95

BINDER: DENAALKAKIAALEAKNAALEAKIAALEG [4H1845-AA]
ENDPOINT_RESULT: -1.84

BINDER: DKIAALEAENAALEAENAALEAKIAALKG [4H2198-AA]
ENDPOINT_RESULT: 1.96

BINDER: DENAALEAKIAALKAKIAALKAENAALKG [4H1388-AA]
ENDPOINT_RESULT: -1.78

BINDER: DENAALKAKIAALKAENAALEAEIAALKG [4H1874-AA]
ENDPOINT_RESULT: -1.21

BINDER: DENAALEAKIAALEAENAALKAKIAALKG [4H1310-AA]
ENDPOINT_RESULT: -1.34

BINDER: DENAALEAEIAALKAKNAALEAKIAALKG [4H1142-AA]
ENDPOINT_RESULT: -1.85

BINDER: DENAALKAEIAALEAKNAALKAEIAALKG [4H1594-AA]
ENDPOINT_RESULT: -1.6

BINDER: DEIAALEAEIAALKAKNAALKAENAALEG [4H123-AA]
ENDPOINT_RESULT: -1.8
